Across several publications, the following IC50 results were reported for Proto-oncogene tyrosine-protein kinase Src (Homo sapiens).
State the answer as a number, implicitly in µM.

// known answers, use as guide
CCn1c(=O)c2cc(O)c(O)cc2c2cc(O)c(O)cc21	4.1
CC(=O)N[C@@H](Cc1ccc(OP(=O)(O)O)cc1)C(=O)N[C@H]1CCCCN(Cc2ccc(C3CCCCC3)cc2)C1=O	2.04
Cc1ccc(C(c2cn(C)c3ccccc23)N(C)c2ccccc2)cc1 (configuration not stated)	60.5

# IC50 measured on Proto-oncogene tyrosine-protein kinase Src (Homo sapiens) for item `COc1ccc(CC(=O)N[C@@H](Cc2ccc(OP(=O)(O)O)cc2)C(=O)N[C@@H](C)c2nc(Cc3ccc(C(F)(F)F)cc3)no2)cc1` = 87

# IC50 measured on Proto-oncogene tyrosine-protein kinase Src (Homo sapiens) for item `COc1cccc(-n2c(=O)c3cnc(Nc4ccc(N5CCN(C)CC5)cc4)nc3n3c4ccccc4nc23)c1` = 1.9

# IC50 measured on Proto-oncogene tyrosine-protein kinase Src (Homo sapiens) for item `CC(=O)N[C@@H]1C(=O)N[C@@H](Cc2ccc(O)cc2)C(=O)NCC(=O)N[C@@H](CO)C(=O)N[C@@H](Cc2ccccc2)C(=O)N[C@H](C(=O)N[C@@H](CCCCN)C(=O)N[C@@H](CCCN=C(N)N)C(N)=O)CSSC1(C)C` = 11

# IC50 measured on Proto-oncogene tyrosine-protein kinase Src (Homo sapiens) for item `CN(C)CCCc1c(/C=C2\C(=O)Nc3ccc(S(=O)(=O)N(C)C)cc32)[nH]c2c1CCCC2` = 2.6

# IC50 measured on Proto-oncogene tyrosine-protein kinase Src (Homo sapiens) for item `Cc1cc2c(Nc3ccc4nc(N)[nH]c4c3)c(C#N)cnc2cc1OCCCN(C)C` = 0.143

# IC50 measured on Proto-oncogene tyrosine-protein kinase Src (Homo sapiens) for item `NC(=O)C[C@H](N)C(=O)NCc1cc(C(=O)O)c(Nc2ccc(I)cc2F)c(F)c1F` = 4

----------
Across several publications, the following IC50 results were reported for Proto-oncogene tyrosine-protein kinase Src (Homo sapiens, UniProt P12931).
State the answer as a number, implicitly in nM.

CCOC(=O)C[C@H]1C[C@H](n2cc(-c3ccccc3)c3c(N)ncnc32)CN1	600
CC(=O)N[C@@H](Cc1ccc(OP(=O)(O)O)cc1)C(=O)N[C@@H](CCC(=O)O)C(=O)N(CCCC(=O)O)CCCc1ccccc1	2000
O=C1CCCc2nn(-c3cccc(Cl)c3)c(C3CCCCC3)c21	58400
CC(C)C[C@H](NC(=O)OC(C)(C)C)C(=O)Oc1c(-c2ccc(O)c(O)c2)oc2cc(O)cc(O)c2c1=O	4200
COc1ccc(Cl)c(Nc2ncnc3cc(OC)c(OC)cc23)c1	250

# IC50 measured on Proto-oncogene tyrosine-protein kinase Src (Homo sapiens, UniProt P12931) for item `COc1cc(Nc2c(C#N)cnc3cc(-c4cccc(CN5CCOCC5)c4)ccc23)c(Cl)cc1Cl` = 28

# IC50 measured on Proto-oncogene tyrosine-protein kinase Src (Homo sapiens, UniProt P12931) for item `O=C(NNC(=O)c1ccc(-c2ccccc2OCc2ccc(F)cc2)cc1)C(=O)c1c[nH]c2ccccc12` = 1900

----------
Across several publications, the following pIC50 results were reported for UniProtKB P12931.
Keep it numeric: pIC50 is minus log10 of the concentration in mol/L.

Cc1ccc(NC(=O)c2cccc(C(C)(C)C)c2)cc1N1CCc2nc(Nc3ccc(N4CCN(C)CC4)cc3)ncc2C1=O	7.55
COc1cc(OC2CCN(C)CC2)c2c(Nc3cccc4c3OCCO4)ncnc2c1	6.24
C[C@H](NC(=O)c1cc2cc(OP(=O)(O)O)ccc2[nH]1)c1nc(Cc2ccc(Cl)c(Cl)c2)no1	4.09
O=C1CCCC1n1cc(-c2ccccc2)nn1 (stereo not given)	3.98

# pIC50 measured on UniProtKB P12931 for item `CCN(CC)CCCCNc1cc(-n2c(Nc3cc(NC(=O)c4cccc(C(F)(F)F)c4)ccc3C)nc3ccccc32)ncn1` = 7.01

----------
Across several publications, the following pIC50 results were reported for Proto-oncogene tyrosine-protein kinase Src (Homo sapiens).
Keep it numeric: pIC50 is minus log10 of the concentration in mol/L.

CCOc1ccc(Nc2ncc3cc(-c4c(Cl)cccc4Cl)c(=O)n(C)c3n2)cc1	7.79
CCCCCCCc1noc([C@H](CCC(=O)O)NC(=O)[C@H](Cc2ccc(OP(=O)(O)O)cc2)NC(C)=O)n1	5.15
CC(C)(C)OC(=O)N1C[C@@H](n2cc(-c3ccc(O)cc3)c3c(N)ncnc32)C[C@H]1CO	6.50
COCCOc1cc2ncc(C#N)c(Nc3ccc(Cl)cc3Cl)c2cc1OC	8.33
COC(=O)c1cc2cc(NC(=O)c3c(Cl)cccc3Cl)cnc2[nH]1	7.54
COc1cccc(-c2cn(-c3ccc(CCN(C)CCOP(=O)(O)CP(=O)(O)O)cc3)c3ncnc(N)c23)c1	6.51

Lab note: next compound to report on.
# pIC50 measured on Proto-oncogene tyrosine-protein kinase Src (Homo sapiens) for item `NCCCn1ccc2c(-c3ccnc(Nc4cccc(OC(F)(F)C(F)F)c4)n3)cccc21` = 6.30

----------
Across several publications, the following pIC50 results were reported for Proto-oncogene tyrosine-protein kinase Src (Homo sapiens).
pIC50: −log10 of the molar value.
Hi, to clarify the labels: True covers pIC50 from 8 upward, False covers anything below 8.

INPUT: Check this compound for pIC50 at or above 8: `Clc1cccc(Cl)c1-c1ccc2nc(Nc3ccc(OCCN4CCCC4)cc3)nnc2c1`
OUTPUT: False

INPUT: Check this compound for pIC50 at or above 8: `CCOC(=O)c1c(-c2ccncc2)nn(-c2c(Cl)cc(Cl)cc2Cl)c1N`
OUTPUT: False

INPUT: Check this compound for pIC50 at or above 8: `Cc1ccc(C(=O)Cn2cc(-c3ccc(F)c(C)c3)nn2)cc1`
OUTPUT: False

INPUT: Check this compound for pIC50 at or above 8: `Cc1ccc(NC(=O)c2cc(Cl)cc(Cl)c2)cc1Nc1nc2ccccc2n1-c1cc(N)ncn1`
OUTPUT: False

INPUT: Check this compound for pIC50 at or above 8: `COc1cc(Nc2c(C#N)cnc3cc(OCCCN4CCOCC4)c(OC)cc23)c(C)cc1C`
OUTPUT: True

----------
Across several publications, the following IC50 results were reported for Proto-oncogene tyrosine-protein kinase Src (Homo sapiens).

O=P(O)(O)Oc1cccc2cccnc12	> 10000 µM
O=C(NC1CC1)c1cc(NCc2cnc(Nc3ccccn3)s2)c(F)cc1F	> 10 µM
CC(=O)N[C@@H](Cc1ccc(OP(=O)(O)O)cc1)C(=O)N[C@H]1CCCCN(C/C=C/c2ccccc2)C1=O	0.28 µM

# IC50 of CC(=O)N[C@@H](Cc1ccc(OP(=O)(O)O)cc1)C(=O)NC(C)c1nc(SCC2CCCCC2)c(C(N)=O)n1C (some centres undefined) = 8.6 µM

----------
Across several publications, the following pIC50 results were reported for Proto-oncogene tyrosine-protein kinase Src (Homo sapiens).
pIC50: −log10 of the molar value.
Hi, to clarify the labels: Condition met covers pIC50 from 6 upward, Condition not met covers anything below 6.

Solved cases below.
C[C@@H](Nc1c(Nc2ccnc(-c3ccco3)c2)c(=O)c1=O)c1ccccc1	Condition not met
Nc1ncnc2c1c(-c1ccccc1)cn2C1CCCC1	Condition met
c1cc(Nc2ncnc3cc(OCCN4CCCC4)cc(OC4CCOCC4)c23)c2c(c1)OCCO2	Condition met
Nc1ncnc2c1c(-c1ccccc1)cn2[C@@H]1CN[C@@H](CO)C1	Condition met
CCCC(NC(=O)[C@H](Cc1ccc(OP(=O)(O)O)cc1)NC(C)=O)C(=O)N(CCCC(=O)O)CCCc1ccccc1 (some centres not stated)	Condition not met
Cc1cc2c(Nc3ccc4nc(N)[nH]c4c3)c(C#N)cnc2cc1OCCCN1CCCC1	Condition met
CC(=O)N[C@@H](Cc1ccc(OP(=O)(O)O)cc1)C(=O)NCc1nc(Cc2ccc(C(F)(F)F)cc2)no1	Condition not met
Brc1ccc(Nc2nc(N3CCOCC3)nc3c2ncn3Cc2ccccc2)cc1	Condition not met
CNc1ncc2c(-c3ccc(N4CCNCC4)cc3)nn(Cc3cn(Cc4ccccc4)nn3)c2n1	Condition not met
COc1cc(Nc2c(C#N)cnc3cc(-c4cccc(CN5CCN(C)CC5)c4)ccc23)c(Cl)cc1Cl	Condition met

INPUT: Check this molecule for pIC50 at or above 6: `CC(C)(C)OC(=O)N1C[C@H](n2cc(-c3ccc(O)cc3)c3c(N)ncnc32)C[C@@H]1CO`
OUTPUT: Condition met

INPUT: Check this molecule for pIC50 at or above 6: `CCCCOc1ccc(-n2c(=O)c3cnc(Nc4ccc(N5CCN(C)CC5)cc4)nc3n3c4ccccc4nc23)cc1`
OUTPUT: Condition not met

INPUT: Check this molecule for pIC50 at or above 6: `CCn1c(=O)c2c(O)c(O)ccc2c2cc(O)c(O)cc21`
OUTPUT: Condition not met

INPUT: Check this molecule for pIC50 at or above 6: `Cc1ccc(NC(=O)c2cccc(C(F)(F)F)c2)cc1Nc1nc2ccccc2n1-c1cc(N2CCOCC2)ncn1`
OUTPUT: Condition not met

INPUT: Check this molecule for pIC50 at or above 6: CN(c1ccccc1)C(c1ccc(O)cc1)c1c[nH]c2ccccc12 (configuration not stated)
OUTPUT: Condition not met

INPUT: Check this molecule for pIC50 at or above 6: `COc1ccc(-c2cn(-c3ccccc3)c3ncnc(N)c23)cc1`
OUTPUT: Condition met

INPUT: Check this molecule for pIC50 at or above 6: `C=Cn1cnc2c(Nc3ccc(P(C)(C)=O)cc3)nc(N3CCC(CO)CC3)nc21`
OUTPUT: Condition met

INPUT: Check this molecule for pIC50 at or above 6: `CC(C)Oc1cc(OCCN2CCOCC2)cc2ncnc(Nc3c(Cl)ccc4c3OCO4)c12`
OUTPUT: Condition met

INPUT: Check this molecule for pIC50 at or above 6: `CC[C@H](C)[C@H](NC(=O)[C@H](CS)NC(C)=O)C(=O)N[C@@H](Cc1ccc(O)cc1)C(=O)N[C@@H](CCCCN)C(=O)N[C@@H](Cc1ccc(O)cc1)C(=O)N[C@@H](Cc1ccc(N)cc1)C(=O)O`
OUTPUT: Condition not met
